Experiment: Stability after storing different forms of Tigecycline at 80° C. for 7 days
Type: physicochemical
Conditions: ambient conditions (before storage); listed as WO 2007/127792 II
measured parameter: 4-Epi-Tigecycline ambient conditions
Please state the number and follow it with the unit.

So, `CN(C)c1cc(NC(=O)CNC(C)(C)C)c(O)c2c1C[C@H]1C[C@H]3[C@H](N(C)C)C(O)=C(C(N)=O)C(=O)[C@@]3(O)C(O)=C1C2=O` ? Its 4-Epi-Tigecycline ambient conditions was 0.17%

* * *

Assay: Stability after storing different forms of Tigecycline at 80° C. for 7 days
Format: physicochemical
Conditions: after storing 7 days at 80° C.; listed as WO 2007/127792 II
measured parameter: Total impurities 7 days at 80° C. (%)
Record the value in %, omitting the unit from your answer.

So, CN(C)c1cc(NC(=O)CNC(C)(C)C)c(O)c2c1C[C@H]1C[C@H]3[C@H](N(C)C)C(O)=C(C(N)=O)C(=O)[C@@]3(O)C(O)=C1C2=O [WO 2007/127292 II, Tigecycline] ? Its Total impurities 7 days at 80° C. was 0.91

* * *

Listed here are molecules together with their documented Total impurities ambient conditions.
Assay: Stability after storing different forms of Tigecycline at 80° C. for 7 days
Assay type: physicochemical
Settings: ambient conditions (before storage)
Record the value in %, omitting the unit from your answer.

Past entries and their recorded results:
molecule: CN(C)c1cc(NC(=O)CNC(C)(C)C)c(O)c2c1C[C@H]1C[C@H]3[C@H](N(C)C)C(O)=C(C(N)=O)C(=O)[C@@]3(O)C(O)=C1C2=O [WO 2006/128150 V, Tigecycline]
Total impurities ambient conditions, %: 0.22
--
molecule: CN(C)c1cc(NC(=O)CNC(C)(C)C)c(O)c2c1C[C@H]1C[C@H]3[C@H](N(C)C)C(O)=C(C(N)=O)C(=O)[C@@]3(O)C(O)=C1C2=O [X, Tigecycline]
Total impurities ambient conditions, %: 0.58

The record that follows has no Total impurities ambient conditions shown yet.
So, CN(C)c1cc(NC(=O)CNC(C)(C)C)c(O)c2c1C[C@H]1C[C@H]3[C@H](N(C)C)C(O)=C(C(N)=O)C(=O)[C@@]3(O)C(O)=C1C2=O [WO 2006/128150 IV, Tigecycline] ? Its Total impurities ambient conditions was 0.4

* * *

Test: Stability after storing different forms of Tigecycline at 80° C. for 7 days
Assay type: physicochemical
Conditions: ambient conditions (before storage)
Listed here are compounds together with their documented 4-Epi-Tigecycline ambient conditions.

compound: CN(C)c1cc(NC(=O)CNC(C)(C)C)c(O)c2c1C[C@H]1C[C@H]3[C@H](N(C)C)C(O)=C(C(N)=O)C(=O)[C@@]3(O)C(O)=C1C2=O [X, Tigecycline]
4-Epi-Tigecycline ambient conditions: 0.2%
//
compound: CN(C)c1cc(NC(=O)CNC(C)(C)C)c(O)c2c1C[C@H]1C[C@H]3[C@H](N(C)C)C(O)=C(C(N)=O)C(=O)[C@@]3(O)C(O)=C1C2=O [WO 2006/128150 IV, Tigecycline]
4-Epi-Tigecycline ambient conditions: 0.23%
//
compound: CN(C)c1cc(NC(=O)CNC(C)(C)C)c(O)c2c1C[C@H]1C[C@H]3[C@H](N(C)C)C(O)=C(C(N)=O)C(=O)[C@@]3(O)C(O)=C1C2=O [WO 2006/128150 III, Tigecycline]
4-Epi-Tigecycline ambient conditions: 0.16%
//
compound: CN(C)c1cc(NC(=O)CNC(C)(C)C)c(O)c2c1C[C@H]1C[C@H]3[C@H](N(C)C)C(O)=C(C(N)=O)C(=O)[C@@]3(O)C(O)=C1C2=O [WO 2006/128150 I, Tigecycline]
4-Epi-Tigecycline ambient conditions: 0.36%

The record that follows has no 4-Epi-Tigecycline ambient conditions shown yet.
So, CN(C)c1cc(NC(=O)CNC(C)(C)C)c(O)c2c1C[C@H]1C[C@H]3[C@H](N(C)C)C(O)=C(C(N)=O)C(=O)[C@@]3(O)C(O)=C1C2=O [WO 2006/128150 V, Tigecycline] ? Its 4-Epi-Tigecycline ambient conditions was < 0.05%
